assay: Cytotoxicity against human Huh7.5 cells infected with HCV genotype 4a assessed as morphological changes after 72 hrs by inverted light microscopy; assay type: cell-based, Huh-7
CC50 at 72 h overview
Express the reported value numerically, then name its unit.

Below, 4 compounds whose answers are already recorded.
SMILES INPUT: S=c1[nH]cnc2c1c(-c1ccccc1)c(-c1ccccc1)n2-c1ccc(Cl)cc1
CC50 at 72 h: 121 µM
//
SMILES INPUT: Clc1cccc(-n2c(-c3ccccc3)c(-c3ccccc3)c3c(Cl)ncnc32)c1
CC50 at 72 h: 168 µM
//
SMILES INPUT: O=c1[nH]nc2c3c(-c4ccccc4)c(-c4ccccc4)n(-c4cccc(Cl)c4)c3ncn12
CC50 at 72 h: 183 µM
//
SMILES INPUT: Cc1cccc(Nc2ncnc3c2c(-c2ccccc2)c(-c2ccccc2)n3-c2cccc(Cl)c2)c1
CC50 at 72 h: 103 µM

Consider the record given below.
Request: Given the entry `Cc1ccccc1Nc1ncnc2c1c(-c1ccccc1)c(-c1ccccc1)n2-c1ccc(Cl)cc1` , report its measured CC50 at 72 h.
Result: 144 µM

====

Listed next: entries and their corresponding inhibition (INH).
test system: Hepatitis C virus; assay: Antiviral activity against HCV genotype 4a ED-43/SG-feo (VYG) replicons infected in human Huh7.5 cells assessed as inhibition of viral replication at non-toxic dose after 72 hrs by immunofluorescence assay; type: functional, Hepacivirus hominis, Huh-7
# number only, unit % dropped from output

See these solved cases before continuing.
SMILES INPUT: Clc1ccc(/C=N/Nc2ncnc3c2c(-c2ccccc2)c(-c2ccccc2)n3-c2ccc(Cl)cc2)cc1
inhibition (INH) / %: 70
--
SMILES INPUT: Clc1ccc(/C=N/Nc2ncnc3c2c(-c2ccccc2)c(-c2ccccc2)n3-c2cccc(Cl)c2)cc1
inhibition (INH) / %: 63.3

Request: What value of inhibition (INH) has been recorded for this entry: `NNc1ncnc2c1c(-c1ccccc1)c(-c1ccccc1)n2-c1ccc(Cl)cc1`
Result: 0

Request: Can you look up the measured inhibition (INH) of `Cc1ccccc1Nc1ncnc2c1c(-c1ccccc1)c(-c1ccccc1)n2-c1cccc(Cl)c1` for me?
Result: 76.7

====

experiment: Cytotoxicity against human Huh7.5 cells infected with HCV genotype 4a assessed as morphological changes after 72 hrs by inverted light microscopy; format: cell-based, Huh-7
Entries and their log10(CC50 at 72 h)
For clarity, the numbers are log10 values of CC50 at 72 h expressed in µM.

SMILES INPUT: O=c1[nH]nc2c3c(-c4ccccc4)c(-c4ccccc4)n(C4CCCCC4)c3ncn12
log10(CC50 at 72 h): 2.23

SMILES INPUT: S=c1[nH]cnc2c1c(-c1ccccc1)c(-c1ccccc1)n2-c1cccc(Cl)c1
log10(CC50 at 72 h): 2.16

SMILES INPUT: Clc1ncnc2c1c(-c1ccccc1)c(-c1ccccc1)n2C1CCCCC1
log10(CC50 at 72 h): 2.19

SMILES INPUT: COc1ccc(/C=N/Nc2ncnc3c2c(-c2ccccc2)c(-c2ccccc2)n3-c2ccc(Cl)cc2)cc1
log10(CC50 at 72 h): 2.05

SMILES INPUT: Cc1nnc2c3c(-c4ccccc4)c(-c4ccccc4)n(-c4ccc(Cl)cc4)c3ncn12
log10(CC50 at 72 h): 2.14

SMILES INPUT: Cc1ccc(Nc2ncnc3c2c(-c2ccccc2)c(-c2ccccc2)n3-c2ccc(Cl)cc2)cc1
log10(CC50 at 72 h): 2.09

Request: # query: log10(CC50 at 72 h) of entry `Cc1cccc(Nc2ncnc3c2c(-c2ccccc2)c(-c2ccccc2)n3-c2ccc(Cl)cc2)c1`
Result: 3.01

Request: Would you mind telling me what log10(CC50 at 72 h) value was observed for `c1ccc(Nc2ncnc3c2c(-c2ccccc2)c(-c2ccccc2)n3C2CCCCC2)cc1` ?
Result: 2.20

Request: Reported log10(CC50 at 72 h), compound `O=c1[nH]nc2c3c(-c4ccccc4)c(-c4ccccc4)n(-c4ccc(Cl)cc4)c3ncn12` : ____
Result: 2.20

Request: Can you share its log10(CC50 at 72 h)? I mean this compound: `Clc1ccc(/C=N/Nc2ncnc3c2c(-c2ccccc2)c(-c2ccccc2)n3-c2cccc(Cl)c2)cc1`
Result: 2.12

Request: Fill blank: measured log10(CC50 at 72 h) of the compound `NNc1ncnc2c1c(-c1ccccc1)c(-c1ccccc1)n2C1CCCCC1` is ____.
Result: 2.20

Request: Given the compound `Cc1nc2c(c(-c3ccccc3)c(-c3ccccc3)n2C2CCCCC2)c(=O)[nH]1` , what is its reported log10(CC50 at 72 h)?
Result: 2.11

Request: For the compound shown here, `N#Cc1c(-c2ccccc2)c(-c2ccccc2)n(-c2ccc(Cl)cc2)c1N` , give the reported log10(CC50 at 72 h).
Result: 2.28

Request: Param item = `S=c1[nH]cnc2c1c(-c1ccccc1)c(-c1ccccc1)n2C1CCCCC1` ; retrieve measured log10(CC50 at 72 h).
Result: 2.11

Request: Given `N#Cc1c(-c2ccccc2)c(-c2ccccc2)n(C2CCCCC2)c1N` , state its recorded log10(CC50 at 72 h).
Result: 2.25

Request: State the recorded log10(CC50 at 72 h) for this entry: `Clc1ccc(-n2c(-c3ccccc3)c(-c3ccccc3)c3c(Cl)ncnc32)cc1`
Result: 2.08

Request: What value of log10(CC50 at 72 h) has been recorded for this entry: `c1ccc(-c2c(-c3ccccc3)n(C3CCCCC3)c3ncn4cnnc4c23)cc1`
Result: 2.25

Request: Entry under review: `NNc1ncnc2c1c(-c1ccccc1)c(-c1ccccc1)n2-c1ccc(Cl)cc1` . Reported log10(CC50 at 72 h)?
Result: 2.16
